# Study System: T1, human CD33 Fc fusion protein (human, UniProt P20138 18-259)
# T1 construct: also called hCD33-Fc; human CD33/Fc chimera (R&D Systems)
# T1 sequence (P20138 18-259 limits assumed): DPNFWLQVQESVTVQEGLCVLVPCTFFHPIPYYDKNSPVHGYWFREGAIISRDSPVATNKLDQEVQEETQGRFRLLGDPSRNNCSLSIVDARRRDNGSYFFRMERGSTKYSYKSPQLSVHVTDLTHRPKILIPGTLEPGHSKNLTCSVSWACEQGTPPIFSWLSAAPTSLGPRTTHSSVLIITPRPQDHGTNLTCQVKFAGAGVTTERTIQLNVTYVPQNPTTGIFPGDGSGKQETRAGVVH
# Method Summary: ForteBio BLI or MSD-SET, IgG, avid;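 also: Anti-CD33 IgG affinity by BLI, IgG captured on AHQ sensors with antigen in solution and a one-to-one kinetic fit, or by MSD solution equilibrium titration with quadratic fit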
Assay Readout: Kd (nM)
Give bare numbers, in nM.

// C-87 (antibody, V domains shown, human IgG1) VH: QLQLQESGPGLVKPSETLSLTCTVSGGSISSSSYAWGWIRQPPGKGLEWIGSIYYSGSTYYNPSLKSRVTISVDTSKNQFSLKLSSVTAADTAVYYCARDPLYPLTPYGMDVWGQGTTVTVSS VL: EIVMTQSPATLSLSPGERATLSCRASQSVSSYLAWYQQKPGQAPRLLIYDASNRATGIPARFSGSGSGTDFTLTISSLEPEDFAVYYCQQLSVFPPTFGGGTKVEIK : Kd value = 1.93
